All values here come from patent US9757375B2.

Molecular target: hLigI (Homo sapiens, UniProt P18858)
Construct: made in house
Sequence (P18858 whole entry): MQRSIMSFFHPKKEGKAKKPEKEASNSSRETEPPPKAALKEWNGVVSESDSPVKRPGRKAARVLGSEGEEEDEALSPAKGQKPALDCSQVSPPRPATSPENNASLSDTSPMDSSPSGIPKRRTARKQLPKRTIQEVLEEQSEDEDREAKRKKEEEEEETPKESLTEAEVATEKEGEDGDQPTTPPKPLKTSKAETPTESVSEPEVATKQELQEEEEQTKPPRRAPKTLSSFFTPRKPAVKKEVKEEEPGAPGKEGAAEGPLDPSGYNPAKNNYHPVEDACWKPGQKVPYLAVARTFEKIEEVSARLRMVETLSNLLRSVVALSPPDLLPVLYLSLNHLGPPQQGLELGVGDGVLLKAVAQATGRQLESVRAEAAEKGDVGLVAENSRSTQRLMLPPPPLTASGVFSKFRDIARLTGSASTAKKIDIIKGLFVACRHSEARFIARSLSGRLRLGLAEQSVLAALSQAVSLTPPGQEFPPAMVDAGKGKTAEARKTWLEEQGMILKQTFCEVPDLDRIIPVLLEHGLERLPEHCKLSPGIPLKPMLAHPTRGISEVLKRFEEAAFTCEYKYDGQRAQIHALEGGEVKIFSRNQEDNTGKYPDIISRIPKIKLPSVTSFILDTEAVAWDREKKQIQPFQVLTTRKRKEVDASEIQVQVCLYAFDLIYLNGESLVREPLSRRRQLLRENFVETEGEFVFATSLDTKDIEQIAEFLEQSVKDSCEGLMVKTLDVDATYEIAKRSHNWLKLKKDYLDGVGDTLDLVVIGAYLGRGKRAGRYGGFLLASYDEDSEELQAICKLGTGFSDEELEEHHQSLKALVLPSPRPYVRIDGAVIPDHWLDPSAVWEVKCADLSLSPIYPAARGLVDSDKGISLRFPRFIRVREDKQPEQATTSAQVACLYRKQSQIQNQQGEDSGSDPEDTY
Assay: High-throughput fluorescence-based DNA joining (ligation) assay
Format: biochemical
Conditions: 100 μM
assayMetric: % of inhibition @ 100 μM (Helen's data) hLigI

Consider the reported % of inhibition @ 100 μM (Helen's data) hLigI for these compounds:
O=C(NN=Cc1ccc(S(=O)(=O)O)o1)c1ccccc1O [Compound 79]; NI (NI- no inhibition)
CS(=O)(=O)NNC(=O)C(=O)NNc1ccccc1 [Compound 184]; 38%
CCc1ccc(NS(=O)(=O)c2ccc(Cl)s2)cc1 [Compound 105]; NI (NI- no inhibition)
O=C(O)Cc1ccccc1S(=O)(=O)c1ccc(Cl)cc1 [Compound 193]; NI (NI- no inhibition)

Exercise: Please give the measured % of inhibition @ 100 μM (Helen's data) hLigI for this compound: CC(C(=O)Nc1cccc(C(=O)O)c1)N(C)S(=O)(=O)c1ccccc1 (centres unmarked) [Compound 199]
Solution: NI (NI- no inhibition)
